# tested on: Metabotropic glutamate receptor 4 (Rattus norvegicus, UniProt P31423)
# Sequence (P31423 whole entry): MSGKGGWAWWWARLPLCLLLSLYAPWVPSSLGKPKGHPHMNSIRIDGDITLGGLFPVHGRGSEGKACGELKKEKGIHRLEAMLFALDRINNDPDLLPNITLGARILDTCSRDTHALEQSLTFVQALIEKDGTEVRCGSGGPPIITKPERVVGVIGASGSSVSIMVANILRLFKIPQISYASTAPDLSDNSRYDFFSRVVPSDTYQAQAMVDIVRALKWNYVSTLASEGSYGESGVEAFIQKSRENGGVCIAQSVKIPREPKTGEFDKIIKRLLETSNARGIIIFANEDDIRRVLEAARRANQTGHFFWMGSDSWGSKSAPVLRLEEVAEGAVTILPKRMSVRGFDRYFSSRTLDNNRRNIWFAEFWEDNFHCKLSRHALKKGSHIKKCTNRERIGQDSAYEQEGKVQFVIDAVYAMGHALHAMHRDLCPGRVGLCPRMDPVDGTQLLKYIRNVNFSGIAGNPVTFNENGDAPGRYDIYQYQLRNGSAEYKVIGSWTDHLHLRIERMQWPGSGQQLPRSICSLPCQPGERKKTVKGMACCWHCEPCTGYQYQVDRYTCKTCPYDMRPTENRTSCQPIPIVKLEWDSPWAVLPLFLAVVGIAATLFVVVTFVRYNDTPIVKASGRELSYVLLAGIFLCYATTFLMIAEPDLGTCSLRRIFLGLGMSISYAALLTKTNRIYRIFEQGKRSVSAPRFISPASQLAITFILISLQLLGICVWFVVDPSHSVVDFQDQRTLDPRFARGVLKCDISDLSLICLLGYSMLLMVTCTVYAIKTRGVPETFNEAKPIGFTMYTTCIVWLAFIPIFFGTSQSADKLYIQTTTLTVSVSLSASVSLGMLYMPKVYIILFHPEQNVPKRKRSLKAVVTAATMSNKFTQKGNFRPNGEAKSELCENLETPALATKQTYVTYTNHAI
# test protocol: Compound was evaluated for the inhibitory activity against cloned Metabotropic glutamate receptor 4
measure: EC50

Query: Fill in: EC50 of N[C@@H](CCC(=O)O)C(=O)O [GLUTAMIC ACID] is ___
Response: 12 µM

Query: Fill in: EC50 of `N[C@H](Cc1cc(=O)[nH]o1)C(=O)O` is ___
Response: > 1000 µM

Query: Fill in: EC50 of `N[C@@H](CCc1nsnc1O)C(=O)O` is ___
Response: > 1000 µM

Query: Fill in: EC50 of `N[C@H](CCc1nsnc1O)C(=O)O` is ___
Response: > 1000 µM

Query: Fill in: EC50 of `N[C@@H](Cc1cc(=O)[nH]o1)C(=O)O` is ___
Response: > 1000 µM
